Consider the following binders; for each one, report its IC50 (neutralization).
# Target: HIV-1 Env of isolate MGRM-D-021 (subtype D) (HIV-1)
# Procedure Text: cell-based or functional assay

Given PGT-123 (antibody, V domains shown) VH: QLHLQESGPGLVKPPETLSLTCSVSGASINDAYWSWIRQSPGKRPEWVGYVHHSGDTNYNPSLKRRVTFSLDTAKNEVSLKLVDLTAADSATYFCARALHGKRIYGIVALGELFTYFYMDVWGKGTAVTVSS VL: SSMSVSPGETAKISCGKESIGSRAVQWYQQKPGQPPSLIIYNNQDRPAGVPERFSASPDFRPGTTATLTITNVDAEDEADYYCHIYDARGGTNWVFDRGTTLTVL , state its recorded IC50 (neutralization).
11.1 µg/mL

Which measured IC50 (neutralization) value corresponds to PGT-137 (antibody, V domains shown) VH: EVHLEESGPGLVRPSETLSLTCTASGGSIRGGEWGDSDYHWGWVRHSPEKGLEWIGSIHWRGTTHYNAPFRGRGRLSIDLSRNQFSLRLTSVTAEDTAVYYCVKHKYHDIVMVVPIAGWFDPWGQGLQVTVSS VL: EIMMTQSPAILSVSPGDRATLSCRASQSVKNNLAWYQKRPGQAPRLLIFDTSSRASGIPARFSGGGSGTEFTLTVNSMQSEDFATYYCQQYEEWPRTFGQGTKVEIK ?
> 50 µg/mL

Need IC50 (neutralization) of PGT-135 (antibody, V domains shown) VH: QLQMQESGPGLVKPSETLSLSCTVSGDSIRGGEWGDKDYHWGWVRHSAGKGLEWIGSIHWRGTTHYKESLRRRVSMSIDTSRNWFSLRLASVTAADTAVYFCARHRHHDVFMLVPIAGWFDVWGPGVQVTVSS VL: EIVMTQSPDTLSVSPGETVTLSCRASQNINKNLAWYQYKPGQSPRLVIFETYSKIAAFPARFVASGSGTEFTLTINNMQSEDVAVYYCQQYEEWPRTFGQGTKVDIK , thanks.
> 50 µg/mL
